Test system: 772245-204-R-J1-PDC complex spheroid growth;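 note: compound exposure lasted seven days; 100% = DMSO vehicle control viability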
Experiment: Anticancer human tumor 772245-204-R-J1-PDC patient-derived rhabdomyosarcoma cell line growth inhibition [Asc]
Details: second compound 1 µM; first compound 1 µM; hits give low values
endpoint-name: viability, T/C (%)
Answers are plain numbers, in %.

>  <molecule>
O=C(c1ccc(F)c(F)c1Nc1ccc(I)cc1F)N1CC(O)([C@@H]2CCCCN2)C1 + CNC(C)C(=O)NC1CN(S(=O)(=O)c2cccc(S(=O)(=O)N3CCC4CCC(C(=O)NC(c5ccccc5)c5ccccc5)N4C(=O)C(NC(=O)C(C)NC)C3)c2)CCC2CCC(C(=O)NC(c3ccccc3)c3ccccc3)N2C1=O

>  <target-or-system>
772245-204-R-J1-PDC complex spheroid growth;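 note: compound exposure lasted seven days; 100% = DMSO vehicle control viability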

>  <viability, T/C [%]>
97.6

$$$$
>  <molecule>
C=CC(=O)N1CCN(c2nc(=O)n(-c3c(C)ccnc3C(C)C)c3nc(-c4c(O)cccc4F)c(F)cc23)C(C)C1 (configuration not stated) + Cc1c(S(C)(=O)=O)c(-c2cc(F)cc(N3CCN(c4ccc(NS(=O)(=O)c5ccc(NC(CCN6CCC(C(=O)OCCCP(=O)(O)O)CC6)CSc6ccccc6)c(S(=O)(=O)C(F)(F)F)c5)cc4)CC3)c2)c(-c2ccc(Cl)cc2)n1C(C)C

>  <target-or-system>
772245-204-R-J1-PDC complex spheroid growth;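 note: compound exposure lasted seven days; 100% = DMSO vehicle control viability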

>  <viability, T/C [%]>
29.3

$$$$
>  <molecule>
CCN1CCN(Cc2ccc(Nc3ncc(F)c(-c4cc(F)c5nc(C)n(C(C)C)c5c4)n3)nc2)CC1 + Cc1c(S(C)(=O)=O)c(-c2cc(F)cc(N3CCN(c4ccc(NS(=O)(=O)c5ccc(NC(CCN6CCC(C(=O)OCCCP(=O)(O)O)CC6)CSc6ccccc6)c(S(=O)(=O)C(F)(F)F)c5)cc4)CC3)c2)c(-c2ccc(Cl)cc2)n1C(C)C

>  <target-or-system>
772245-204-R-J1-PDC complex spheroid growth;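 note: compound exposure lasted seven days; 100% = DMSO vehicle control viability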

>  <viability, T/C [%]>
9.85

$$$$
>  <molecule>
C#Cc1c(F)ccc2cc(O)cc(-c3ncc4c(N5CC6CCC(C5)N6)nc(OCC56CCCN5CC(F)C6)nc4c3F)c12 (configuration not stated) + CNC(C)C(=O)NC1CN(S(=O)(=O)c2cccc(S(=O)(=O)N3CCC4CCC(C(=O)NC(c5ccccc5)c5ccccc5)N4C(=O)C(NC(=O)C(C)NC)C3)c2)CCC2CCC(C(=O)NC(c3ccccc3)c3ccccc3)N2C1=O

>  <target-or-system>
772245-204-R-J1-PDC complex spheroid growth;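 note: compound exposure lasted seven days; 100% = DMSO vehicle control viability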

>  <viability, T/C [%]>
83

$$$$
>  <molecule>
O=C(c1ccc(F)c(F)c1Nc1ccc(I)cc1F)N1CC(O)([C@@H]2CCCCN2)C1 + Cc1c(S(C)(=O)=O)c(-c2cc(F)cc(N3CCN(c4ccc(NS(=O)(=O)c5ccc(NC(CCN6CCC(C(=O)OCCCP(=O)(O)O)CC6)CSc6ccccc6)c(S(=O)(=O)C(F)(F)F)c5)cc4)CC3)c2)c(-c2ccc(Cl)cc2)n1C(C)C

>  <target-or-system>
772245-204-R-J1-PDC complex spheroid growth;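 note: compound exposure lasted seven days; 100% = DMSO vehicle control viability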

>  <viability, T/C [%]>
13.4

$$$$

Look up viability, T/C for the entries below, preserving their order.
1. O=C(c1cc(Cc2n[nH]c(=O)c3ccccc23)ccc1F)N1CCN(C(=O)C2CC2)CC1 + Cc1c(S(C)(=O)=O)c(-c2cc(F)cc(N3CCN(c4ccc(NS(=O)(=O)c5ccc(NC(CCN6CCC(C(=O)OCCCP(=O)(O)O)CC6)CSc6ccccc6)c(S(=O)(=O)C(F)(F)F)c5)cc4)CC3)c2)c(-c2ccc(Cl)cc2)n1C(C)C
2. COc1c(OCCCN2CCOCC2)ccc2c3n(c(=NC(=O)c4cnc(N)nc4)nc12)CCN3 + Cc1c(S(C)(=O)=O)c(-c2cc(F)cc(N3CCN(c4ccc(NS(=O)(=O)c5ccc(NC(CCN6CCC(C(=O)OCCCP(=O)(O)O)CC6)CSc6ccccc6)c(S(=O)(=O)C(F)(F)F)c5)cc4)CC3)c2)c(-c2ccc(Cl)cc2)n1C(C)C
3. C=CC(=O)N1CCN(c2nc(=O)n(-c3c(C)ccnc3C(C)C)c3nc(-c4c(O)cccc4F)c(F)cc23)C(C)C1 (configuration not stated) + CNC(C)C(=O)NC1CN(S(=O)(=O)c2cccc(S(=O)(=O)N3CCC4CCC(C(=O)NC(c5ccccc5)c5ccccc5)N4C(=O)C(NC(=O)C(C)NC)C3)c2)CCC2CCC(C(=O)NC(c3ccccc3)c3ccccc3)N2C1=O
4. O=C(c1cc(Cc2n[nH]c(=O)c3ccccc23)ccc1F)N1CCN(C(=O)C2CC2)CC1 + CNC(C)C(=O)NC1CN(S(=O)(=O)c2cccc(S(=O)(=O)N3CCC4CCC(C(=O)NC(c5ccccc5)c5ccccc5)N4C(=O)C(NC(=O)C(C)NC)C3)c2)CCC2CCC(C(=O)NC(c3ccccc3)c3ccccc3)N2C1=O
5. COc1c(OCCCN2CCOCC2)ccc2c3n(c(=NC(=O)c4cnc(N)nc4)nc12)CCN3 + CNC(C)C(=O)NC1CN(S(=O)(=O)c2cccc(S(=O)(=O)N3CCC4CCC(C(=O)NC(c5ccccc5)c5ccccc5)N4C(=O)C(NC(=O)C(C)NC)C3)c2)CCC2CCC(C(=O)NC(c3ccccc3)c3ccccc3)N2C1=O
6. C=C(F)C(=O)N1CCN(c2nc(OCC3CCCN3C)nc3c2CCN(c2cccc4cccc(Cl)c24)C3)CC1CC#N (configuration not stated) + Cc1c(S(C)(=O)=O)c(-c2cc(F)cc(N3CCN(c4ccc(NS(=O)(=O)c5ccc(NC(CCN6CCC(C(=O)OCCCP(=O)(O)O)CC6)CSc6ccccc6)c(S(=O)(=O)C(F)(F)F)c5)cc4)CC3)c2)c(-c2ccc(Cl)cc2)n1C(C)C
7. CCN1CCN(Cc2ccc(Nc3ncc(F)c(-c4cc(F)c5nc(C)n(C(C)C)c5c4)n3)nc2)CC1 + CNC(C)C(=O)NC1CN(S(=O)(=O)c2cccc(S(=O)(=O)N3CCC4CCC(C(=O)NC(c5ccccc5)c5ccccc5)N4C(=O)C(NC(=O)C(C)NC)C3)c2)CCC2CCC(C(=O)NC(c3ccccc3)c3ccccc3)N2C1=O

Output:
30.7
6.44
97.2
97.2
21.6
30.9
104
